Reported values of IC50 for individual entries
Target System: PD1 (Homo sapiens), Q15116
Sequence (Q15116 25-170): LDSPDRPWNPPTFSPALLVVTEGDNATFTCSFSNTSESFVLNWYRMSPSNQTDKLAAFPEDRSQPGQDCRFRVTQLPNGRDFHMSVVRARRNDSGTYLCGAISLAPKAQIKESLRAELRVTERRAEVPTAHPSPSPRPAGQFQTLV
Assay Comment: ELISA PD1/PDL1 blocking
Condition: modification not given
Field: numeric (nM). Do not append units.

{"Binder": "RWVARRDYRFDMGFDYWVWE [hairpin 1e]", "IC50 [nM]": 290}

# input for lookup
I am curious: what IC50 value has been reported for RWCARRDYRFDMGFDYWGWE [peptide 1c] ?
3700
